In this section we review reported koff values for a set of binders.
assayed-system: T1, human VEGF (hVEGF) (human, UniProt P15692 181-395)
T1 construct: also called VEGF-A
T1 sequence: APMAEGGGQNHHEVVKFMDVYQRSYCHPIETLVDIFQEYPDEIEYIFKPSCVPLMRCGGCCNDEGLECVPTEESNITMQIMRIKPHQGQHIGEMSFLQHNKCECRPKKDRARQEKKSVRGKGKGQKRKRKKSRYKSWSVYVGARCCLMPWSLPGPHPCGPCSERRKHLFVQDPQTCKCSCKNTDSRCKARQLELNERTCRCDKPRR
assay-notes: SPR single-cycle
The figure you give is taken to be in s⁻¹; do not add the unit.

binder="G6.31 LC-N94Q (Fab, V domains shown, Fab) VH: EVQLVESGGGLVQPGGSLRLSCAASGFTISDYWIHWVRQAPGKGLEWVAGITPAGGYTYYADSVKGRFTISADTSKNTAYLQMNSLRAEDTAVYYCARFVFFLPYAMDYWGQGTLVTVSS VL: DIQMTQSPSSLSASVGDRVTITCRASQDVSTAVAWYQQKPGKAPKLLIYSASFLYSGVPSRFSGSGSGTDFTLTISSLQPEDFATYYCQQGYGQPFTFGQGTKVEIK" measurement_units=s⁻¹ test_value=0.00133

Q: Please report the recorded koff for G6.31 LC-N94A (Fab, V domains shown, Fab) VH: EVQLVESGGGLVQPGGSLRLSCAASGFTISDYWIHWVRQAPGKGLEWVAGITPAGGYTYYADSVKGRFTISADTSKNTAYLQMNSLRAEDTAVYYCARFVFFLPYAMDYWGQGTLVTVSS VL: DIQMTQSPSSLSASVGDRVTITCRASQDVSTAVAWYQQKPGKAPKLLIYSASFLYSGVPSRFSGSGSGTDFTLTISSLQPEDFATYYCQQGYGAPFTFGQGTKVEIK .
Ans: 0.00131
